These measurements were taken from patent US20240166630A1.

test: In vivo pharmacokinetics in male C57BL/6 mice; design: species or system mouse; conditions: male, C57BL/6, mouse, plasma, po, 9.92 mg/kg, 9.92 mg/kg p.o., mean (n = 2), read-out: MRT0-inf

{"molecule": "[2H]C([2H])(c1c[nH]c2ccccc12)[C@H]1CCCN1C([2H])([2H])[2H] [I-B-1]", "MRT inf / h": 8.72}

---

test: In vivo pharmacokinetics in male C57BL/6 mice; design: species or system mouse; details: male, C57BL/6, mouse, plasma, po, 9.92 mg/kg, 9.92 mg/kg p.o., mean (n = 2), read-out: AUC0-inf
measurement_type: AUC(0-inf)

{"compound": "[2H]C([2H])(c1c[nH]c2ccccc12)[C@H]1CCCN1C([2H])([2H])[2H] [I-B-1]", "observed_measurement": "2360 ng·h/mL"}
